tested on: Aspergillus oryzae; assay: The compound was evaluated for activity against Aspergillus oryzae; type: functional; set-up: unit not given here
PROPERTY_MEASURED: -Log C
Would you mind answering with just the numeric figure?

For the compound `Oc1c(Br)cc(I)c2cccnc12` , what -Log C is on record?
1.85

What -Log C value was documented for this compound, `Oc1c(Cl)cc(F)c2cccnc12` ?
1.7

Data request, read-out -Log C, for `Oc1c(I)cc(Br)c2cccnc12`
1.24

Which -Log C value belongs to `O=[N+]([O-])c1ccc2cccnc2c1O` ?
0.28

Looking for the measured -Log C of `Oc1c(Cl)cc(Br)c2cccnc12` , can you help?
1.82

Could you share which -Log C value was measured for `Oc1c(Br)cc(F)c2cccnc12` ?
1.67

Return reported -Log C; argument: `O=[N+]([O-])c1cc(F)c2cccnc2c1O`
0.85

Given the entry `Oc1c(F)cc(I)c2cccnc12` , report its measured -Log C.
1.46

Find the recorded -Log C belonging to `O=[N+]([O-])c1cc(I)c2cccnc2c1O` and report it.
0.57

Could you tell me which -Log C is on file for `Nc1cc(Br)c2cccnc2c1O` ?
0.68

Recorded -Log C of `Oc1c(Br)ccc2cccnc12` , please.
1.89

Look up -Log C: `Nc1cc(I)c2cccnc2c1O`
1.03

###

assay: -Log C was determined by performing the pentylenetetrazole test; type: ADME; set-up: unit not given here
PROPERTY_MEASURED: -Log C
Reply: number alone, nothing else.

Which -Log C reading was recorded for the compound `O=C1CN=C(c2ccccc2)c2cc(C(F)(F)F)ccc2N1` ?
2.48

What value of -Log C has been reported for the following compound? `Cc1ccc2c(c1)C(c1ccccc1)=NCC(=O)N2`
1.55

For `CN1C(=O)CN=C(c2ccccc2)c2cc(C#N)ccc21` , what is its reported -Log C?
2.36

Recorded -Log C of `COc1ccccc1C1=NCC(=O)Nc2ccc(Cl)cc21` , please.
1.6

-Log C for `Cc1ccccc1C1=NCC(=O)Nc2ccc(Cl)cc21` ?
1.57

Bench note: what -Log C did `CC(C)(C)N1C(=O)CN=C(c2ccccc2)c2cc(Cl)ccc21` show?
0.39

Given the entry `CCN1C(=O)CN=C(c2ccccc2)c2cc(Cl)ccc21` , report its measured -Log C.
1.87

Please report the recorded -Log C for `CN(C)c1ccc2c(c1)C(c1ccccc1)=NCC(=O)N2C` .
1.7

Reported -Log C, compound `N#Cc1ccc2c(c1)C(c1ccccc1)=NCC(=O)N2` : ____
2.3

I am curious: what -Log C value has been reported for `CN(C)c1ccc2c(c1)C(c1ccccc1)=NCC(=O)N2` ?
0.82

###

test system: Aspergillus oryzae; assay: The compound was evaluated for activity against Aspergillus oryzae; assay type: functional; design: unit not given here
PROPERTY_MEASURED: -Log C
Number only, please.

Fill in the blank: the reported -Log C of `O=[N+]([O-])c1cc(Br)c(O)c2ncccc12` is ____.
0.66

Look at this compound and give its reported -Log C. `Oc1c(F)cc(Br)c2cccnc12`
1.62

Requested read-out: -Log C. Entry: `O=[N+]([O-])c1cc(F)c(O)c2ncccc12`
0.68

Quick check: -Log C of `Oc1c(I)cc(F)c2cccnc12` ?
2.62

What does the data say about its -Log C? Entry: `Oc1c(I)ccc2cccnc12`
1.48

What value of measured -Log C is listed for `Oc1c(F)cc(Cl)c2cccnc12` ?
1.7

Would you kindly share the measured -Log C for `O=[N+]([O-])c1cc(Br)c2cccnc2c1O` ?
0.66

###

Would you kindly list -Log C for each of these compounds?
assay: -Log C was determined by performing the electroshock minimum test; type: ADME; design: unit not given here

Return reported -Log C; argument: `CC(C)(C)N1C(=O)CN=C(c2ccccc2)c2cc(Cl)ccc21`
0.39

Quick one: -Log C for `N#Cc1ccc2c(c1)C(c1ccccc1)=NCC(=O)N2` ?
0.41

Quick one: -Log C of `CN(C)c1ccc2c(c1)C(c1ccccc1)=NCC(=O)N2` ?
0.38

What measured -Log C goes with O=C1CN=C(c2ccccc2)c2cc(C(F)(F)F)ccc2N1 [RO-052904] ?
1.16

Fill blank: measured -Log C of the compound `Cc1ccc2c(c1)C(c1ccccc1)=NCC(=O)N2` is ____.
0.51

Param item = `CN(C)c1ccc2c(c1)C(c1ccccc1)=NCC(=O)N2C` ; retrieve measured -Log C.
0.06

Fill in the blank: the reported -Log C of `CN1C(=O)CN=C(c2ccccc2)c2cc(C#N)ccc21` is ____.
0.14

# get_value(readout='-Log C', item= `CCN1C(=O)CN=C(c2ccccc2)c2cc(Cl)ccc21` )
0.3

Which -Log C reading was recorded for the compound `COc1ccccc1C1=NCC(=O)Nc2ccc(Cl)cc21` ?
0.35

Fill blank: measured -Log C of the compound `Cc1ccccc1C1=NCC(=O)Nc2ccc(Cl)cc21` is ____.
0.19

###

tested on: Trichoderma viride; experiment: The compound was evaluated for activity against Trichoderma viride; format: functional; parameters: unit not given here
PROPERTY_MEASURED: -Log C
Answer field: number only, no words.

// -Log C lookup, key: `Nc1cc(Br)c2cccnc2c1O`
0.92

Using the record for `Oc1c(Br)cc(F)c2cccnc12` , report its -Log C.
2.39

I'd like to know its -Log C. The compound in question is `Oc1c(F)cc(Br)c2cccnc12`
1.92

Recorded -Log C for `Oc1c(Cl)cc(Br)c2cccnc12` , please?
2.41

Item `O=[N+]([O-])c1cc(Br)c(O)c2ncccc12` has what recorded -Log C?
1.32

Data request, read-out -Log C, for `Oc1c(Br)cc(I)c2cccnc12`
2.24

Fill in the blank: the reported -Log C of `Nc1cc(I)c2cccnc2c1O` is ____.
1.21

###

system: Staphylococcus aureus; test: The compound was evaluated for activity against strain Micrococcus aureus; type: functional; set-up: unit not given here
Task for the reader: assign each of the following molecules its reported -Log C.
Lab note: record just the number, no unit beside it.

Identify the measured -Log C of CCN(CCO)C(=O)COc1cc2c(O)c3c(O)c(C)c4c(c13)C(=O)C(C)(O/C=C/C(OC)C(C)C(OC(C)=O)C(C)C(O)C(C)C(O)C(C)/C=C/C=C(/C)C(=O)N2)O4 (centres undefined) for Staphylococcus aureus.
7.52

Look up -Log C with Staphylococcus aureus for this molecule: CCCCN(CCCC)C(=O)COc1cc2c(O)c3c(O)c(C)c4c(c13)C(=O)C(C)(O/C=C/C(OC)C(C)C(OC(C)=O)C(C)C(O)C(C)C(O)C(C)/C=C/C=C(/C)C(=O)N2)O4 (centres undefined)
8.46

Look up -Log C with Staphylococcus aureus for this molecule: COC1/C=C/OC2(C)Oc3c(C)c(O)c4c(O)c(cc(OCC(=O)N5CCCC5)c4c3C2=O)NC(=O)/C(C)=C\C=C\C(C)C(O)C(C)C(O)C(C)C(OC(C)=O)C1C (centres undefined)
7.26

What -Log C appears in the records for this molecule with Staphylococcus aureus? COC1/C=C/OC2(C)Oc3c(C)c(O)c4c(O)c(cc(OCC(=O)N(C)Cc5ccccc5)c4c3C2=O)NC(=O)/C(C)=C\C=C\C(C)C(O)C(C)C(O)C(C)C(OC(C)=O)C1C (centres undefined)
8.24

###

assay: -Log C was determined by performing the maximum electroshock test; format: ADME; parameters: unit not given here
Criterion: -Log C strictly under 0.5. Met: true. Not met: false.

Is the reported -Log C for `CC(C)(C)N1C(=O)CN=C(c2ccccc2)c2cc(Cl)ccc21` strictly below 0.5?
true

Determine if `Cc1ccccc1C1=NCC(=O)Nc2ccc(Cl)cc21` shows -Log C strictly lower than 0.5.
false

Check if -Log C falls below 0.5 for `CN(C)c1ccc2c(c1)C(c1ccccc1)=NCC(=O)N2` .
true

Record `CCN1C(=O)CN=C(c2ccccc2)c2cc(Cl)ccc21` : is its -Log C strictly below 0.5?
false

Is it true that -Log C reported for O=C1CN=C(c2ccccc2)c2cc(C(F)(F)F)ccc2N1 [RO-052904] is less than 0.5?
false

###

Kindly supply the reported -Log C values for the records listed here.
system: Enterococcus faecalis; experiment: The compound was evaluated for activity against strain Streptococcus faecalis; format: functional; parameters: unit not given here

Consider the compound shown here: COC1/C=C/OC2(C)Oc3c(C)c(O)c4c(O)c(cc(OCC(=O)N(Cc5ccccc5)Cc5ccccc5)c4c3C2=O)NC(=O)/C(C)=C\C=C\C(C)C(O)C(C)C(O)C(C)C(OC(C)=O)C1C (stereo unspecified) What is its recorded -Log C?
7.49

Can you look up the measured -Log C of C=CCN(CC=C)C(=O)COc1cc2c(O)c3c(O)c(C)c4c(c13)C(=O)C(C)(O/C=C/C(OC)C(C)C(OC(C)=O)C(C)C(O)C(C)C(O)C(C)/C=C/C=C(/C)C(=O)N2)O4 (stereo unspecified) for me?
7.22

Which value of -Log C has been reported for CCN(CCO)C(=O)COc1cc2c(O)c3c(O)c(C)c4c(c13)C(=O)C(C)(O/C=C/C(OC)C(C)C(OC(C)=O)C(C)C(O)C(C)C(O)C(C)/C=C/C=C(/C)C(=O)N2)O4 (stereo unspecified) in the records?
6.18

Any idea what -Log C was measured for C#CCN(CCC)C(=O)COc1cc2c(O)c3c(O)c(C)c4c(c13)C(=O)C(C)(O/C=C/C(OC)C(C)C(OC(C)=O)C(C)C(O)C(C)C(O)C(C)/C=C/C=C(/C)C(=O)N2)O4 (stereo unspecified) ?
7.14

// -Log C lookup, key: CCCCN(CCCC)C(=O)COc1cc2c(O)c3c(O)c(C)c4c(c13)C(=O)C(C)(O/C=C/C(OC)C(C)C(OC(C)=O)C(C)C(O)C(C)C(O)C(C)/C=C/C=C(/C)C(=O)N2)O4 (stereo unspecified)
7.46

Which -Log C is listed for CCCNC(=O)COc1cc2c(O)c3c(O)c(C)c4c(c13)C(=O)C(C)(O/C=C/C(OC)C(C)C(OC(C)=O)C(C)C(O)C(C)C(O)C(C)/C=C/C=C(/C)C(=O)N2)O4 (stereo unspecified) ?
5.82

// -Log C lookup, key: COC1/C=C/OC2(C)Oc3c(C)c(O)c4c(O)c(cc(OCC(=O)N(C)C5CCCCC5)c4c3C2=O)NC(=O)/C(C)=C\C=C\C(C)C(O)C(C)C(O)C(C)C(OC(C)=O)C1C (stereo unspecified)
7.53

State the recorded -Log C for this entry: COC1/C=C/OC2(C)Oc3c(C)c(O)c4c(O)c(cc(OCC(=O)N(C)CCO)c4c3C2=O)NC(=O)/C(C)=C\C=C\C(C)C(O)C(C)C(O)C(C)C(OC(C)=O)C1C (stereo unspecified)
5.85

// returns reported -Log C for input COC1/C=C/OC2(C)Oc3c(C)c(O)c4c(O)c(cc(OCC(=O)N(CCCl)CCCl)c4c3C2=O)NC(=O)/C(C)=C\C=C\C(C)C(O)C(C)C(O)C(C)C(OC(C)=O)C1C (stereo unspecified)
5.77

Entry under review: COC1/C=C/OC2(C)Oc3c(C)c(O)c4c(O)c(cc(OCC(=O)N5C(C)CCC5C)c4c3C2=O)NC(=O)/C(C)=C\C=C\C(C)C(O)C(C)C(O)C(C)C(OC(C)=O)C1C (stereo unspecified) . Reported -Log C?
7.45

Looking for the measured -Log C of COC1/C=C/OC2(C)Oc3c(C)c(O)c4c(O)c(cc(OCC(=O)N5CCCCCC5)c4c3C2=O)NC(=O)/C(C)=C\C=C\C(C)C(O)C(C)C(O)C(C)C(OC(C)=O)C1C (stereo unspecified) , can you help?
7.45

// lookup -Log C for COC1/C=C/OC2(C)Oc3c(C)c(O)c4c(O)c(cc(OCC(=O)NC(C)(C)C)c4c3C2=O)NC(=O)/C(C)=C\C=C\C(C)C(O)C(C)C(O)C(C)C(OC(C)=O)C1C (stereo unspecified)
5.83

Which -Log C is reported for this compound? COC1/C=C/OC2(C)Oc3c(C)c(O)c4c(O)c(cc(OCC(=O)N5C(C)COCC5C)c4c3C2=O)NC(=O)/C(C)=C\C=C\C(C)C(O)C(C)C(O)C(C)C(OC(C)=O)C1C (stereo unspecified)
6.98

Form field: reported -Log C of CCCCN(C)C(=O)COc1cc2c(O)c3c(O)c(C)c4c(c13)C(=O)C(C)(O/C=C/C(OC)C(C)C(OC(C)=O)C(C)C(O)C(C)C(O)C(C)/C=C/C=C(/C)C(=O)N2)O4 (stereo unspecified)
7.22

Param item = COC1/C=C/OC2(C)Oc3c(C)c(O)c4c(O)c(cc(OCC(=O)Nc5ccc(Cl)cc5)c4c3C2=O)NC(=O)/C(C)=C\C=C\C(C)C(O)C(C)C(O)C(C)C(OC(C)=O)C1C (stereo unspecified) ; retrieve measured -Log C.
6.39

What value of -Log C has been recorded for this entry: COC1/C=C/OC2(C)Oc3c(C)c(O)c4c(O)c(cc(OCC(=O)N(C)C5CCCC5)c4c3C2=O)NC(=O)/C(C)=C\C=C\C(C)C(O)C(C)C(O)C(C)C(OC(C)=O)C1C (stereo unspecified)
7.22

What does the record list as -Log C for COC1/C=C/OC2(C)Oc3c(C)c(O)c4c(O)c(cc(OCC(=O)N5CCOCC5)c4c3C2=O)NC(=O)/C(C)=C\C=C\C(C)C(O)C(C)C(O)C(C)C(OC(C)=O)C1C (stereo unspecified) ?
5.84

Quick one: -Log C of CCN(C)C(=O)COc1cc2c(O)c3c(O)c(C)c4c(c13)C(=O)C(C)(O/C=C/C(OC)C(C)C(OC(C)=O)C(C)C(O)C(C)C(O)C(C)/C=C/C=C(/C)C(=O)N2)O4 (stereo unspecified) ?
7.06

What -Log C value was documented for this compound, COC1/C=C/OC2(C)Oc3c(C)c(O)c4c(O)c(cc(OCC(=O)Nc5ccccc5)c4c3C2=O)NC(=O)/C(C)=C\C=C\C(C)C(O)C(C)C(O)C(C)C(OC(C)=O)C1C (stereo unspecified) ?
6.04

Item COC1/C=C/OC2(C)Oc3c(C)c(O)c4c(O)c(cc(OCC(=O)N(C)Cc5ccccc5)c4c3C2=O)NC(=O)/C(C)=C\C=C\C(C)C(O)C(C)C(O)C(C)C(OC(C)=O)C1C (stereo unspecified) has what recorded -Log C?
7.09

-Log C lookup needed for COC1/C=C/OC2(C)Oc3c(C)c(O)c4c(O)c(cc(OCC(N)=O)c4c3C2=O)NC(=O)/C(C)=C\C=C\C(C)C(O)C(C)C(O)C(C)C(OC(C)=O)C1C (stereo unspecified) , thanks.
4.91
